Biological target: T1, glucose-dependent insulinotropic peptide (gastric inhibitory polypeptide) receptor (GIPR), primary cAMP assay (human, UniProt P48546 22-466)
T1 sequence (looked up): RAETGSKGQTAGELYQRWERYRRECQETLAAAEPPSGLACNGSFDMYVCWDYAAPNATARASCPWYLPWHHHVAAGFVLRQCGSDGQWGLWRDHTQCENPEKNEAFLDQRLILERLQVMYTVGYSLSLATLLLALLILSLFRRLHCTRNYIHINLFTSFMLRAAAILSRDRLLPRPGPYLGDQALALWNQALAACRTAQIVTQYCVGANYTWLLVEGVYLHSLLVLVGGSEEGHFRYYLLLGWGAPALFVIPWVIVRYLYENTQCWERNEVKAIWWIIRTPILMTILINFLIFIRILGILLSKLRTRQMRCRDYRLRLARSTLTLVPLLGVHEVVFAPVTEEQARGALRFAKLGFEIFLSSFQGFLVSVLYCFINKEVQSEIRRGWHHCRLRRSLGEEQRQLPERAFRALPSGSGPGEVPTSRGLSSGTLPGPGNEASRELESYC
Assay: cell-based or functional assay
Starred links: 1 amine or outer side, 2 acyl side, 3 side chain; linkers in the order of their positions; H or OH if unused. Non-standard residues stand in square brackets, D forms with d. Groups on a side chain read outwards from the residue. Primed or numbered codes have the meaning given here. No end group written: not given here. *: point of attachment. γGlu = O=C(O)[C@H](CCC(=O)[*:2])N[*:1]; αMeF = C[C@](N)(Cc1ccccc1)C(=O)O; Myristoyl = CCCCCCCCCCCCCC(=O)*; αMeK = C[C@](N)(CCCCN)C(=O)O; Lauroyl = CCCCCCCCCCCC(=O)*; αMeS = C[C@](N)(CO)C(=O)O; Nle = CCCC[C@H](N)C(=O)O; PEG2′ = not defined here; Aib = CC(C)(N)C(=O)O
endpoint: Primary assay EC50 (cAMP), n1 (nM)

H[Aib]EGS[αMeF]TSDV[αMeS]SK([PEG2′-PEG2′-γGlu-Lauroyl])LEGEAA[αMeK]E[Nle]IAK([PEG2′-PEG2′-γGlu-Lauroyl])VVEGG-NH2 [SEQ ID NO: 407]    21.5
H[Aib]EGS[αMeF]TSDK([PEG2′-PEG2′-γGlu-Lauroyl])SSYLEGEAA[αMeK]EFIAK([PEG2′-PEG2′-γGlu-Lauroyl])VVEGG-NH2 [SEQ ID NO: 257]    22.8
H[Aib]EGS[αMeF]TSDVSK([PEG2′-PEG2′-γGlu-Lauroyl])FLEGEAA[αMeK]EFIK([PEG2′-PEG2′-γGlu-Lauroyl])FVVEGG-NH2 [SEQ ID NO: 248]    22.4
H[Aib]EGS[αMeF]TSDV[αMeS]SK([PEG2′-PEG2′-γGlu-Myristoyl])LEGEAA[αMeK]E[αMeF]IAK([PEG2′-PEG2′-γGlu-Myristoyl])VVEGG-NH2 [SEQ ID NO: 408]    21.5
